- run.description: Cytotoxicity, CellTiter-Glo
- Assay type: cell-based
- particulars: human, Jurkat cells; mock-infected Jurkat cell viability
measurement.kind: CC50 (nM)
Field format: number, assumed nM, no unit text.

Exercise: I am curious: what CC50 value has been reported for CC(C)[C@]12O[C@H]1[C@@H]1O[C@]13[C@]1(O[C@H]1C[C@H]1C4=C(CC[C@@]13C)C(=O)OC4)[C@@H]2O [triptolide] ?
Solution: 13.9

* * *

- Test system: HIV-1 NL4-3
- run.description: PBMC antiviral assay, p24 ELISA
- Type: cell-based
- particulars: Human immunodeficiency virus 1, NL43, PBMC, 144 h, HIV-1 NL4-3, PBMC donor B, p24, day 6 post-infection
measurement.kind: EC50 (nM)
Answer in nM, number only, no unit symbol.

Exercise: Record request: EC50 value, item CC(C)[C@]12O[C@H]1[C@@H]1O[C@]13[C@]1(O[C@H]1C[C@H]1C4=C(CC[C@@]13C)C(=O)OC4)[C@@H]2O [triptolide]
Solution: 0.9

* * *

- Test system: HIV-1-Luc
- run.description: in vitro
- Format: cell-based
- particulars: human; HIV-1-Luc, Jurkat; read-out: SI (selective index, CC50/EC50)
- Method: In the antiviral assay with the HIV-1 reporter virus, Jurkat cells were seeded at a density of 2 × 10^4 cells per well in 96-well tissue culture plates and infected with HIV-1-Luc at an MOI of 0.5 in the presence or absence of the test compounds. At 48 h post-infection, luciferase activity in the cells was determined and EC50 values were calculated as described above.
measurement.kind: selectivity ratio at 48 h
Please give the numeric answer without any surrounding text.

Exercise: Would you kindly share the measured selectivity ratio at 48 h for CC(C)[C@]12O[C@H]1[C@@H]1O[C@]13[C@]1(O[C@H]1C[C@H]1C4=C(CC[C@@]13C)C(=O)OC4)[C@@H]2O [triptolide] ?
Solution: 30.9

* * *

- Test system: HIV-1 NL4-3
- run.description: in vitro
- Type: cell-based
- particulars: human; HIV-1 NL4-3, TZM-bl; read-out: SI (selective index, CC50/EC50)
measurement.kind: selectivity ratio at 48 h
Give a plain numeric answer without units written out.

Exercise: Entry CC(C)[C@]12O[C@H]1[C@@H]1O[C@]13[C@]1(O[C@H]1C[C@H]1C4=C(CC[C@@]13C)C(=O)OC4)[C@@H]2O [triptolide] has what selectivity ratio at 48 h?
Solution: 79.4

* * *

- System: HIV-1 NL4-3
- run.description: PBMC antiviral assay, p24 ELISA
- Type: cell-based
- particulars: human, HIV-1 NL4-3, PBMC donor B; read-out: SI (selective index, CC50/EC50)
measurement.kind: selectivity ratio at 6 days
Write the number on its own, no unit after it.

Exercise: Quick one: selectivity ratio at 6 days for CC(C)[C@]12O[C@H]1[C@@H]1O[C@]13[C@]1(O[C@H]1C[C@H]1C4=C(CC[C@@]13C)C(=O)OC4)[C@@H]2O [triptolide] ?
Solution: 17

* * *

- Tested on: HIV-1 BaL
- run.description: PBMC antiviral assay, p24 ELISA
- Assay type: cell-based
- particulars: human, PBMC donor B, read-out: SI (selective index, CC50/EC50)
measurement.kind: selectivity ratio at 6 days
Respond with the number and no other words.

Exercise: Which selectivity ratio at 6 days is reported for this compound? CC(C)[C@]12O[C@H]1[C@@H]1O[C@]13[C@]1(O[C@H]1C[C@H]1C4=C(CC[C@@]13C)C(=O)OC4)[C@@H]2O [triptolide]
Solution: 9.6
